Assign cell viability to each entry below.
system: HL-60; experiment: cell viability (% survival relative to DMSO control, bortezomib = 0%); higher = less cytotoxic; details: 1 nM; 72 h
A number alone suffices; assume %.

Prompt: Any idea what cell viability came out for Oc1ccc(Nc2nc(-c3ccc(Cl)cc3)cs2)cc1 [SKI II] on HL-60?
Completion: 88.9

Prompt: Any idea what cell viability came out for CC1(C)[C@@H](O[C@H]2O[C@H](C(=O)O)[C@@H](O)[C@H](O)[C@H]2O[C@@H]2O[C@H](C(=O)O)[C@@H](O)[C@H](O)[C@H]2O)CC[C@]2(C)[C@H]3C(=O)C=C4[C@@H]5C[C@@](C)(C(=O)O)CC[C@]5(C)CC[C@@]4(C)[C@]3(C)CC[C@@H]12 [Glycyrrhizin] on HL-60?
Completion: 74.5

Prompt: Any idea what cell viability came out for NS(=O)(=O)c1ccc([N+](=O)[O-])cc1 [4-Nitrobenzenesulfonamide] on HL-60?
Completion: 106

Prompt: Any idea what cell viability came out for Cc1coc2c1C(=O)C(=O)c1c-2ccc2c1CCCC2(C)C [Tanshinone IIA] on HL-60?
Completion: 113

Prompt: Any idea what cell viability came out for N#Cc1ccnc(N2C(=O)CC[C@H]2C(=O)N(c2cncc(F)c2)C(C(=O)NC2CC(F)(F)C2)c2ccccc2Cl)c1 (some centres not stated) [Ivosidenib] on HL-60?
Completion: 112

Prompt: Any idea what cell viability came out for O=C(C1CC1)N1CC[C@@H](C=C2NNC(=O)N2c2ccc(-c3ccc4occc4c3)cc2)C1 on HL-60?
Completion: 101

Prompt: Any idea what cell viability came out for CCN(CC)CCCC(C)Nc1ccnc2cc(Cl)ccc12 (configuration not stated) [Chloroquine] on HL-60?
Completion: 101

---

test system: myeloid leukemia patient primary cells Pat.11; assay: cell viability (% survival relative to DMSO control); higher = less cytotoxic; details: 10 nM; 72 h
Assign cell viability to each entry below.
A number alone suffices; assume %.

Prompt: I'd like to know its cell viability. The molecule in question is O=C(O)Cn1nnc(-c2cc(N3CCC(Oc4cc(F)ccc4Br)CC3)no2)n1 [MK-8245]
Completion: 96.4

Prompt: I'd like to know its cell viability. The molecule in question is O=C1c2cc([N+](=O)[O-])ccc2-n2c1nc1ccccc1c2=O [GNF-Pf-3777]
Completion: 97.9

Prompt: I'd like to know its cell viability. The molecule in question is O=C(O)C1=CC(=C(c2ccc(O)c(C(=O)O)c2)c2ccc(O)c(C(=O)O)c2)C=CC1=O [Aurintricarboxylic acid]
Completion: 95.8

Prompt: I'd like to know its cell viability. The molecule in question is N#CC(C#N)=NNc1ccc(OC(F)(F)F)cc1 [FCCP]
Completion: 97.3

Prompt: I'd like to know its cell viability. The molecule in question is CCC(=O)N1CCN(c2ccc(-n3c(=O)ccc4cnc5ccc(-c6cnc7ccccc7c6)cc5c43)cc2C(F)(F)F)CC1 [Torin1]
Completion: 90.9

Prompt: I'd like to know its cell viability. The molecule in question is Oc1ccc(Nc2nc(-c3ccc(Cl)cc3)cs2)cc1 [SKI II]
Completion: 97.2

Prompt: I'd like to know its cell viability. The molecule in question is O=C(C1CC1)N1CC[C@@H](C=C2NNC(=O)N2c2ccc(-c3ccc4occc4c3)cc2)C1
Completion: 98
